assay_method_text: self-splicing fitness, log relative to wild type (ln ratio); higher = more splicing; Tetrahymena group I intron in knt gene, E. coli kanamycin selection, DiMSum; sequences stand for … in CUCUCU…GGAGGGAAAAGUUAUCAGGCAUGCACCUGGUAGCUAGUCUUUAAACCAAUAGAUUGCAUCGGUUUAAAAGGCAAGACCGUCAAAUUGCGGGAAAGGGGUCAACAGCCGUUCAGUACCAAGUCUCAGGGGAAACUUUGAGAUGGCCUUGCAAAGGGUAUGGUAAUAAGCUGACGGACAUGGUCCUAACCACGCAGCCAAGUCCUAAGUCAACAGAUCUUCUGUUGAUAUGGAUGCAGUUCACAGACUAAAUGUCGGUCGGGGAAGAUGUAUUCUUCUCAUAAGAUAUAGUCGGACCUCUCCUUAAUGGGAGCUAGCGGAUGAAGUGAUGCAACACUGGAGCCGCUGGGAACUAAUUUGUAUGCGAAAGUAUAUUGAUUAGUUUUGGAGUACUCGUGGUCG;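 also: selection with 25 µg/mL kanamycin versus none on LB agar overnight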
condition_label: 37 °C
Assign Satisfied whenever self-splicing fitness (ln) does not fall below -1; assign Not satisfied whenever it does.

Query string: Determine whether measured self-splicing fitness (ln) meets or exceeds -1 for CUCAAGCAAUAUUACGAUGU
Result string: Not satisfied

Query string: Hi team, for CCUUAGCAAUAUUACGCAUC , is the recorded self-splicing fitness (ln) at or above -1?
Result string: Not satisfied

Query string: Please indicate if the recorded self-splicing fitness (ln) for CAUGAGCAAUAUUACGUGUU meets or exceeds -1.
Result string: Not satisfied

Query string: Exam item: decide whether the reported self-splicing fitness (ln) for CAUGAGCAAUAUUACGUGAA is at least -1.
Result string: Not satisfied

----------
assay_method_text: self-splicing fitness, log relative to wild type (ln ratio); higher = more splicing; Tetrahymena group I intron in knt gene, E. coli kanamycin selection, DiMSum; sequences stand for … in CUCUCU…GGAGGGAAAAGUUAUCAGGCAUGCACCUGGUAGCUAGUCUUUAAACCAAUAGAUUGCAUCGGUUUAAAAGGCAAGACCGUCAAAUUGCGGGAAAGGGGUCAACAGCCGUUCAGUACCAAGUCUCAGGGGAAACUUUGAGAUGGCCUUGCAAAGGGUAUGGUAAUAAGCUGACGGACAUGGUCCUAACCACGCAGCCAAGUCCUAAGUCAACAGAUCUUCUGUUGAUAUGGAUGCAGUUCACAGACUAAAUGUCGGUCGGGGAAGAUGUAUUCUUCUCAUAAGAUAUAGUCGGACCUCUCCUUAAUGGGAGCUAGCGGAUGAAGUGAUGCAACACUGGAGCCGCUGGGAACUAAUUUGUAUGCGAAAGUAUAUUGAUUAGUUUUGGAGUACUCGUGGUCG
condition_label: 30 °C
measured_quantity: self-splicing fitness (ln)
Response field accepts a number only; no unit should be typed.

A selection of reference data follows.
{"columns": ["primary_sequence", "self-splicing fitness (ln)"],
 "data": [
  ["UCAUAGCAAUAUUACGAGUU", -2.66],
  ["GGUAAGCAAUAUUACGGUGG", -2.82],
  ["CAACAGCAAUAUUACGUCCG", -0.0787],
  ["CACUAGCAAUAUUACGCAUU", -3.06],
  ["UUCGAGCAAUAUUACGCUAA", -2.91],
  ["GAAAAGCAAUAUUACGUUGC", -3.83]
]}

Record AGAGAGCAAUAUUACGCGCU , field self-splicing fitness (ln): -1.89

----------
assay_method_text: self-splicing fitness, log relative to wild type (ln ratio); higher = more splicing; Tetrahymena group I intron in knt gene, E. coli kanamycin selection, DiMSum; sequences stand for … in CUCUCU…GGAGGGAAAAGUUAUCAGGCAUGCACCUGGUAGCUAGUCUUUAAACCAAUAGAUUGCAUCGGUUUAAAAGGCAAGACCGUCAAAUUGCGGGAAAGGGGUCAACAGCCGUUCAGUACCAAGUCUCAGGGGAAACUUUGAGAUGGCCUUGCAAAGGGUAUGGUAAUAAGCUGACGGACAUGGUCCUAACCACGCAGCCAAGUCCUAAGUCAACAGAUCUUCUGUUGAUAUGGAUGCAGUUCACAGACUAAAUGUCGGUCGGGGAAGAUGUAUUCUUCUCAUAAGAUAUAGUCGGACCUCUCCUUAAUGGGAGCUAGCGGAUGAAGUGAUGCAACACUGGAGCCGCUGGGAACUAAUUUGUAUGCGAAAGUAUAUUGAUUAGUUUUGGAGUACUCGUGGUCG
condition_label: 30 °C
Each item that follows carries a reported self-splicing fitness (ln).
The response must contain the number and no unit.

Consider the worked cases shown below.
{"columns": ["primary_sequence", "observed_value"],
 "data": [
  ["CCUAAGCAAUAUUACGACUU", -4.37],
  ["AAGAAGCAAUAUUACGAGAG", -4.49],
  ["UGAAAGCAAUAUUACGGCCC", -0.866],
  ["GAAAAGCAAUAUUACGUUCA", -0.878],
  ["UGCUAGCAAUAUUACGCUGA", -1.25]
]}

// CGUCAGCAAUAUUACGGUAC : self-splicing fitness (ln) value = -3.64

Per the record, CUCCAGCAAUAUUACGCAUG has self-splicing fitness (ln) of -2.12

Reported self-splicing fitness (ln) for UGCGAGCAAUAUUACGCACG was -2.22

// CUUCAGCAAUAUUACGCUAA : self-splicing fitness (ln) value = -3.37

Per the records, this sequence ( UUGAAGCAAUAUUACGCGGU ) has self-splicing fitness (ln) equal to -2.94

# self-splicing fitness (ln) (sequence: GGCAAGCAAUAUUACGGCGC ) is -0.3

Quick note, self-splicing fitness (ln) for CACAAGCAAUAUUACGUUUA landed at -2.95

Just so you know, measured self-splicing fitness (ln) for AAAGAGCAAUAUUACGAGAU came out at -3.95

The reported self-splicing fitness (ln) of the sequence CUCUAGCAAUAUUACGUCUG was -2.34

Input GCCAAGCAAUAUUACGCCGA . Output self-splicing fitness (ln): -1.64

Looking up CUACAGCAAUAUUACGUAUC , I found its self-splicing fitness (ln) recorded as -2.78

Reported self-splicing fitness (ln) ( CGGGAGCAAUAUUACGACAU ) = -4.01

response.value for CAGCAGCAAUAUUACGGCGG (field: self-splicing fitness (ln)) = -1.93

The sequence identified as AAAGAGCAAUAUUACGGCUG registered its self-splicing fitness (ln) at -2.36

For this sequence ( AUAUAGCAAUAUUACGACCG ), measured self-splicing fitness (ln) is -1.62

Summary for this sequence, AGAGAGCAAUAUUACGGCCC : self-splicing fitness (ln) is -1.82

Per the record, CAACAGCAAUAUUACGCGGU has self-splicing fitness (ln) of -2.36

According to the records, this sequence GUGCAGCAAUAUUACGGCGA displays self-splicing fitness (ln) of -0.548

Documented self-splicing fitness (ln) of AUAUAGCAAUAUUACGGAUC : -1.55

----------
assay_method_text: self-splicing fitness, log relative to wild type (ln ratio); higher = more splicing; Tetrahymena group I intron in knt gene, E. coli kanamycin selection, DiMSum; sequences stand for … in CUCUCU…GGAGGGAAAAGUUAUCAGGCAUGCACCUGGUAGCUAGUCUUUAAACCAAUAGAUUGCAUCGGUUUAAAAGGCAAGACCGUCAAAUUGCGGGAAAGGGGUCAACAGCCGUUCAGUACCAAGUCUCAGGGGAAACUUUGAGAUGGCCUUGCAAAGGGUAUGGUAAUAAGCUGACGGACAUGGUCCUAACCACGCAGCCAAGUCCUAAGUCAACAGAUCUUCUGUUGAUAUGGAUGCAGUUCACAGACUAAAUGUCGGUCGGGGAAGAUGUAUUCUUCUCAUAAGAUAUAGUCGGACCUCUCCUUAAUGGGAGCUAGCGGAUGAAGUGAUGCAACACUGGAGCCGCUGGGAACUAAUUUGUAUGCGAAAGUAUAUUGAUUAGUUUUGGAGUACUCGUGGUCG
condition_label: 30 °C
Each entry below carries its reported self-splicing fitness (ln).
The answer should be a number; do not append a unit.

Recorded self-splicing fitness (ln), per entry:
{"columns": ["primary_sequence", "self-splicing fitness (ln)"],
 "data": [
  ["CAAUAGCAAUAUUACGUAUG", -1.66],
  ["UAUCAGCAAUAUUACGUCAG", -1.42]
]}

Kindly note the recorded self-splicing fitness (ln) for UCCCAGCAAUAUUACGGCGG , which is -2.91

The sequence identified as AAACAGCAAUAUUACGUGAC registered its self-splicing fitness (ln) at -3.5

Looking up GUGUAGCAAUAUUACGUCAG , I see its self-splicing fitness (ln) listed as -3.06

Given item CAUCAGCAAUAUUACGAUCA , the value recorded as its self-splicing fitness (ln) is -0.959

Sample UCUAAGCAAUAUUACGACGC ; self-splicing fitness (ln) observed: -0.443

Reported self-splicing fitness (ln) ( UUGCAGCAAUAUUACGUUAA ) = -1.55
